Measured values drawn from ChEMBL document CHEMBL1268934 for this set.

Target: GABA-A receptor; alpha-6/beta-3/gamma-2 (Homo sapiens, UniProt P18507+P28472+Q16445)
Sequence (P18507 whole entry): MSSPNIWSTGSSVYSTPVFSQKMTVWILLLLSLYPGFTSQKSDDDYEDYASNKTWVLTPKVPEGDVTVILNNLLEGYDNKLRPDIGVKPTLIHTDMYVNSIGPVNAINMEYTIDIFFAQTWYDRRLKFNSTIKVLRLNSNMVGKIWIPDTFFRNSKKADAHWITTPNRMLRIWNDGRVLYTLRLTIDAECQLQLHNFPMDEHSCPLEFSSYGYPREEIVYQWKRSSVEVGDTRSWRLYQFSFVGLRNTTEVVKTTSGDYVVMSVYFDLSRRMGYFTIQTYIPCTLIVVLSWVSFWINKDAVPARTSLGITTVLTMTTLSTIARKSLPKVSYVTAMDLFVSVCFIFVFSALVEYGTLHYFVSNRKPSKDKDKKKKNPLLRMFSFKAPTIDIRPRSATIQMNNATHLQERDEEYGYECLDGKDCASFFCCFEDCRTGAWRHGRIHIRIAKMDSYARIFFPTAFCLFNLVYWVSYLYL
Sequence (P28472 whole entry): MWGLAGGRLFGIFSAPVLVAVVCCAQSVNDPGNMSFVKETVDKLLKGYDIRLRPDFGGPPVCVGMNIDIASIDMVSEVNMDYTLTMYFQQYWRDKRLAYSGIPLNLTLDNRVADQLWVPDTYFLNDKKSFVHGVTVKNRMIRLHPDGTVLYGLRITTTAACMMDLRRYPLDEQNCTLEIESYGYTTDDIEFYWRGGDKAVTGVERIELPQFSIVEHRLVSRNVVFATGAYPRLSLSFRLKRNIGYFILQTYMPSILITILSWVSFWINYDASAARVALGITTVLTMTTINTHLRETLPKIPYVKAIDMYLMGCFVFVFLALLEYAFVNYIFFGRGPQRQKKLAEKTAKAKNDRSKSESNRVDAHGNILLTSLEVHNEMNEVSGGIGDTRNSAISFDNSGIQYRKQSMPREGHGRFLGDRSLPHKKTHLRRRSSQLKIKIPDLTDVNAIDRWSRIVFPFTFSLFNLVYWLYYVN
Sequence (Q16445 whole entry): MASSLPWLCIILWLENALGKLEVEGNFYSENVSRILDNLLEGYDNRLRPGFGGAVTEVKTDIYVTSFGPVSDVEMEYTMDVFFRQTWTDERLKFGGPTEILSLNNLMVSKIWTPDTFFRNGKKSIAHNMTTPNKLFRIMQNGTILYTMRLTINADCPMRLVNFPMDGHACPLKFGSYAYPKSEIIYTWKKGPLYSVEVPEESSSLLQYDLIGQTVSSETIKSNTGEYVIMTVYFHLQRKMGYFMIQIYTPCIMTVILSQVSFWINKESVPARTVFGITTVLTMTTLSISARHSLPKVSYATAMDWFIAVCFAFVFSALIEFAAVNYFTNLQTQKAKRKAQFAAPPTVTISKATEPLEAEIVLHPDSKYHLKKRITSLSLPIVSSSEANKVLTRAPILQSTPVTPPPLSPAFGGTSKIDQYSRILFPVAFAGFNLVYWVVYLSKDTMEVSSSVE
Experiment: Displacement of [3H]flunitrazepam from human recombinant GABAA alpha-6-beta-3-gamma-2 receptor expressed in HEK cells by liquid scintillation counting
Format: cell-based, HEK293
RECORDED_ENDPOINT: Ki

A selection of reference data follows.
CCC(OC(=O)c1cc2c(cn1)[nH]c1ccccc12)C(F)(F)F (configuration not stated); > 2000 nM
O=C(OCC(F)(F)F)c1cc2c(cn1)[nH]c1ccccc12; > 2000 nM
CCCC(=O)c1cc2c(cn1)[nH]c1ccc(F)cc12; > 2500 nM
CC(C)CCOc1cc2c3ccccc3nc-2c[nH]1; 10000 nM
CC[C@H](C)OC(=O)c1cc2c(cn1)[nH]c1ccccc12; > 2000 nM

Fill in Ki for each of the 2 compounds listed.
1. C[Si](C)(C)C#Cc1ccc2[nH]c3cnc(C(=O)OCC(F)(F)F)cc3c2c1
2. CC(C)(C)OC(=O)c1ccc2[nH]c3ccc(C#Cc4ccc5[nH]c6ccc(C(=O)OC(C)(C)C)cc6c5c4)cc3c2c1

[A]
["> 3000 nM", "> 4000 nM"]
